# procedure_summary: Accelerated storage test of aldehyde mixture with additive, 10 ppm Cu (Example 2)
# assay_conditions: after 55° C. 14 days without cap, before test 5.09, blank 3.05
Exercise: for every item that follows, state its recorded Z9-16:Ald.
Numbers only.

Worked examples, 3 molecules total:
| molecule | measured_metric | quantitative_readout |
| --- | --- | --- |
| OCC(O)CO | Z9-16:Ald | 0.00 |
| Cc1cc(-n2nc3ccc(Cl)cc3n2)c(O)c(C(C)(C)C)c1 | Z9-16:Ald | 3.20 |
| CCCOC(=O)c1cc(O)c(O)c(O)c1 [Propyl Gallate] | Z9-16:Ald | 3.83 |

Please supply Z9-16:Ald for each of the following items, keeping them in order.
1. [Na+].[OH-] [Sodium Hydroxide]
2. Cc1cc(C(C)(C)C)c(O)c(C(C)(C)C)c1
3. O=S1(=O)CCCC1

A.
3.18
3.73
3.08

---

# procedure_summary: Accelerated storage test of aldehyde mixture with additive, 10 ppm Cu (Example 2)
# assay_conditions: after 55° C. 14 days without cap, before test 5.09, blank 3.05
measured_metric: Z9-16:Ald
Answers are plain numbers.

| molecule | measured_metric | quantitative_readout |
| --- | --- | --- |
| C1COCCN1 [Morpholine] | Z9-16:Ald | 3.23 |

Please supply Z9-16:Ald for each of the following items, keeping them in order.
1. [Na+].[O-][n+]1ccccc1[S-] [Sodium pyrithione]
2. C[S+](C)[O-] [DMSO]
3. Cc1c(C)c2c(c(C)c1O)CCC(C)(CCCC(C)CCCC(C)CCCC(C)C)O2 (racemic) [Tocopherol]
4. CC(C)(C)c1cc(O)ccc1O [TBHQ]

A.
1. 4.20
2. 3.10
3. 3.09
4. 3.67

Please supply Z9-16:Ald for each of the following items, keeping them in order.
1. CC1(C)CC(OC(=O)CCCCCCCCC(=O)OC2CC(C)(C)NC(C)(C)C2)CC(C)(C)N1 [Tinuvin 770]
2. CN(C)CCO [Dimethylethanolamine]

A.
1: 3.12; 2: 3.09

Please supply Z9-16:Ald for each of the following items, keeping them in order.
1. COc1ccc(O)c(C(C)(C)C)c1 [BHA]
2. Cc1ccc(O)c(-n2nc3ccccc3n2)c1 [Tinuvin P]

A.
1: 3.46; 2: 3.07

---

# procedure_summary: Storage test of aldehyde mixture containing 4-hydroxy-TEMPO and 10 ppm Copper with additive (Example 3)
# assay_conditions: after 55 C 14 days without cap; 10 ppm Copper; before test 74.98, blank 58.18
measured_metric: Z11-16:Ald
Give bare numbers.

Please supply Z11-16:Ald for each of the following items, keeping them in order.
1. Cc1nnc(S)s1
2. [Na+].[O-][n+]1ccccc1[S-] [Sodium pyrithione]
3. SC1=NCCS1
4. Nc1nnc(S)s1
5. CC1(C)CC(=O)CC(C)(C)N1

A.
1. 71.97
2. 74.71
3. 75.24
4. 72.73
5. 59.27

---

# procedure_summary: Storage test of aldehyde mixture containing 4-hydroxy-TEMPO and 10 ppm Copper with additive (Example 3)
# assay_conditions: after 55 C 14 days without cap; 10 ppm Copper; before test 74.98, blank 58.18
Exercise: for every item that follows, state its recorded Z11-16:Ald.
One number for each entry.

Worked examples, 2 molecules total:
| molecule | quantitative_readout |
| --- | --- |
| Cn1ccnc1S [2-mercapto-1-methylimidazole] | 72.34 |
| CC1(C)CC(O)CC(C)(C)N1[O] [Additive 4-OH-TEMPO] | 68.82 |

Here is the next item to consider.
Q. Recall and state the measured Z11-16:Ald for Sc1nc2ccccc2[nH]1 [2-mercapto-Benzimidazole] .
A. 69.33

---

# procedure_summary: Accelerated storage test of aldehyde mixture with additive, 40 ppm Cu (Example 1)
# Assay type: physicochemical
# assay_conditions: after 55° C. 14 days without cap, before test 7.5, blank 6.659339
measured_metric: 16:Ald
Numbers only.

Worked examples, 3 compounds total:
| sample_smiles | measured_metric | quantitative_readout |
| --- | --- | --- |
| Cc1cc(C(C)(C)C)c(O)c(C(C)(C)C)c1 | 16:Ald | 6.958 |
| C1COCCN1 | 16:Ald | 4.755 |
| OCC(O)CO | 16:Ald | 6.736 |

Q. Recall and state the measured 16:Ald for C[S+](C)[O-] .
A. 6.722

---

# procedure_summary: Accelerated storage test of aldehyde mixture with additive, 10 ppm Cu (Example 2)
# assay_conditions: after 55° C. 14 days without cap, before test 1.05, blank 17.72
measured_metric: C16:Acid
One number for each entry.

| molecule | quantitative_readout |
| --- | --- |
| CCCOC(=O)c1cc(O)c(O)c(O)c1 [Propyl Gallate] | 11.32 |

Please supply C16:Acid for each of the following items, keeping them in order.
1. C1COCCN1
2. CC1(C)CC(OC(=O)CCCCCCCCC(=O)OC2CC(C)(C)NC(C)(C)C2)CC(C)(C)N1

A.
[12.54, 16.99]

Please supply C16:Acid for each of the following items, keeping them in order.
1. [Na+].[O-][n+]1ccccc1[S-] [Sodium pyrithione]
2. O=S1(=O)CCCC1
3. COc1ccc(O)c(C(C)(C)C)c1
4. CN(C)CCO

A.
1. 3.34
2. 16.92
3. 12.64
4. 17.70

Please supply C16:Acid for each of the following items, keeping them in order.
1. Cc1ccc(O)c(-n2nc3ccccc3n2)c1
2. [Na+].[OH-] [Sodium Hydroxide]
3. Cc1cc(C(C)(C)C)c(O)c(C(C)(C)C)c1

A.
1. 17.66
2. 12.93
3. 10.43

Please supply C16:Acid for each of the following items, keeping them in order.
1. CC(C)(C)c1cc(O)ccc1O
2. C[S+](C)[O-]

A.
1: 10.34; 2: 16.74

---

# procedure_summary: Accelerated storage test of aldehyde mixture with additive, 40 ppm Cu (Example 1)
# Type: physicochemical
# assay_conditions: after 55° C. 14 days without cap, before test 4.3, blank 3.066023
hey, just use 1 if measured Z9-16:Ald is less than 3, otherwise -1

| compound | assigned_label |
| --- | --- |
| C1COCCN1 | 1 |
| COc1ccc(O)c(C(C)(C)C)c1 | -1 |

Q. Problem: For the compound Cc1cc(-n2nc3ccc(Cl)cc3n2)c(O)c(C(C)(C)C)c1 , is Z9-16:Ald under 3?
A. -1

Q. Problem: For the compound OCC(O)CO , is Z9-16:Ald under 3?
A. -1

---

# procedure_summary: Storage test of aldehyde mixture containing 4-hydroxy-TEMPO and 10 ppm Copper with additive (Example 3)
# assay_conditions: after 55 C 14 days without cap; 10 ppm Copper; before test 3.01, blank 7.94
Exercise: for every item that follows, state its recorded 16:Acid.
One number for each entry.

Worked examples, 5 compounds total:
| compound | measured_metric | quantitative_readout |
| --- | --- | --- |
| Cc1nnc(S)s1 [5-Methyl-1,3,4-thiadiazole-2-thiol] | 16:Acid | 3.02 |
| [Na+].[O-][n+]1ccccc1[S-] [Sodium pyrithione] | 16:Acid | 3.39 |
| Sc1nc2ccccc2[nH]1 [2-mercapto-Benzimidazole] | 16:Acid | 3.80 |
| CC1(C)CC(O)CC(C)(C)N1[O] [Additive 4-OH-TEMPO] | 16:Acid | 4.18 |
| Cn1ccnc1S [2-mercapto-1-methylimidazole] | 16:Acid | 2.93 |

Here is the next item to consider.
Q. Recall and state the measured 16:Acid for Nc1nnc(S)s1 [5-Amino-1,3,4-Thiadiazole-2-thiol] .
A. 3.03

---

Exercise: for every item that follows, state its recorded 16:Ald.
# procedure_summary: Accelerated storage test of aldehyde mixture with additive, 10 ppm Cu (Example 2)
# assay_conditions: after 55° C. 14 days without cap, before test 8.41, blank 6.60
Answers are plain numbers.

| molecule | measured_metric | quantitative_readout |
| --- | --- | --- |
| CCCOC(=O)c1cc(O)c(O)c(O)c1 [Propyl Gallate] | 16:Ald | 3.81 |
| C[S+](C)[O-] | 16:Ald | 6.68 |

Q. Recall and state the measured 16:Ald for [Na+].[OH-] [Sodium Hydroxide] .
A. 6.65

---

# procedure_summary: Accelerated storage test of aldehyde mixture with additive, 40 ppm Cu (Example 1)
# Format: physicochemical
# assay_conditions: after 55° C. 14 days without cap, before test 69.4, blank 54.83784, in % (unit assumed)
Exercise: for every item that follows, state its recorded Z11-16Ald.
Give bare numbers.

Worked examples, 2 compounds total:
| compound | Z11-16Ald |
| --- | --- |
| Cc1cc(C(C)(C)C)c(O)c(C(C)(C)C)c1 | 54.06 |
| [Na+].[OH-] [Sodium Hydroxide] | 51.62 |

Please supply Z11-16Ald for each of the following items, keeping them in order.
1. OCC(O)CO
2. CC1(C)CC(OC(=O)CCCCCCCCC(=O)OC2CC(C)(C)NC(C)(C)C2)CC(C)(C)N1
3. O=S1(=O)CCCC1

A.
[54.86, 55.81, 54.91]

Provenance of the data: patent US20260256136A1
